target: Torsin-1A (Homo sapiens) (UniProt O14656); assay: torsin A binders from cell lysate, primary screen, small-molecule microarray, wild-type, 635/667 nm (AID 1149); details: COS7 hTOR1A-WT lysate, 635 nm fluorescence, higher = more signal
Sequence (O14656 whole entry, looked up): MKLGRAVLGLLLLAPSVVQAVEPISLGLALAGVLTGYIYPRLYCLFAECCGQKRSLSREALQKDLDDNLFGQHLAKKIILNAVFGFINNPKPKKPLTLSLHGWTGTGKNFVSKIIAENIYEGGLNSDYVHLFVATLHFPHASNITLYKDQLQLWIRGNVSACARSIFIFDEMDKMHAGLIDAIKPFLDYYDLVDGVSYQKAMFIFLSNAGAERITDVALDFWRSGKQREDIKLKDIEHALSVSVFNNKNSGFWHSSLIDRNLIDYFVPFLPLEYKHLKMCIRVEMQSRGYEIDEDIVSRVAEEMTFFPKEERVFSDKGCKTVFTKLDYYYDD
measurement type: composite z-score

compound	target	result
COCCCN1C(=O)[C@@]2(c3ccc([N+](=O)[O-])cc3)CC(=O)N(C3CCCCC3)[C@@H]2c2ccc(CO)cc21	Torsin-1A (Homo sapiens) (UniProt O14656)	0.0116
CCOC(=O)C[C@H]1[C@H](OC(=O)Cc2ccc3c(c2)OCO3)[C@@H](NC(=O)c2ccc(-c3ccccc3)cc2)c2cc(OCCCO)ccc2N1C(=O)c1ccc2ccccc2n1	Torsin-1A (Homo sapiens) (UniProt O14656)	-0.184
CC(C)(C)OC(=O)CC[C@]12N=C(c3ccc(OCCCO)cc3)O[C@H]1c1ccccc1N(CCS(=O)(=O)c1ccccc1)C2=O	Torsin-1A (Homo sapiens) (UniProt O14656)	0.698
C=C(C)C1C(=C)CN([C@H](CO)c2ccccc2)C1=O (stereo partly drawn)	Torsin-1A (Homo sapiens) (UniProt O14656)	-1.46
COc1ccc(CCNC(=O)[C@@]2(Sc3ccc(C)cc3)CC(=O)N(C3CCCCC3)[C@@H]2c2ccc(CO)cc2I)cc1	Torsin-1A (Homo sapiens) (UniProt O14656)	0.333
COc1ccc(C(O)C2C=CC3C(=O)NC(=O)C3N2Nc2ccccn2)cc1 (stereo not drawn)	Torsin-1A (Homo sapiens) (UniProt O14656)	0.21
CCOC(=O)[C@H]1CC=C2CC1C(=O)N1CCC[C@@H]1[C@@H]2O[Si](C)(C)C(C)(C)C (stereo partly drawn)	Torsin-1A (Homo sapiens) (UniProt O14656)	-0.55
CC(C)N1C(=O)[C@@]2(Cc3ccccc31)c1ccccc1C(=O)N(C1CCCCC1)[C@H]2c1ccc(CO)cc1	Torsin-1A (Homo sapiens) (UniProt O14656)	-0.245

----------
biological target: Dihydroorotate dehydrogenase (quinone), mitochondrial (Plasmodium falciparum (isolate 3D7)); assay: PfDHODH enzyme inhibitors, primary screen, biochemical, C-terminal His tag, absorbance 600 nm (AID 1175); settings: DCIP absorbance 600 nm, higher = more signal, called active from +8 up or from −8 down;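 further: recombinant parasite enzyme with a five histidine tag at its C terminus; test concentration not given here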

molecule	composite z-score
O=C1O[C@@H](c2ccccc2)[C@@H](c2ccccc2)N2[C@@H](c3ccc(OCCO)cc3)[C@]3(C(=O)Nc4ccccc43)[C@@H](C(=O)NC[C@H](O)c3ccccc3)[C@H]12	-0.854
COCCOC(=O)N1C(=O)[C@@]2(c3cc(C#Cc4ccc(OC)cc4)ccc31)[C@H](c1ccccc1OCCO)N1[C@H](c3ccccc3)[C@H](c3ccccc3)OC(=O)[C@H]1[C@@H]2C(=O)N1CCN(c2ncccn2)CC1	0.478
CC(C)(C)OC(=O)CC[C@]12N=C(c3ccc(OCCCO)cc3)O[C@H]1c1ccccc1N(CCS(=O)(=O)c1ccccc1)C2=O	0.017
CC1CC/C=C\[C@H]2OC34C=CCN(c5ccc(Cl)cc5)C(=O)[C@H]3N(CCO)C(=O)[C@]4(C)C2C(=O)O1 (stereo partly drawn)	-0.0582
C#CCNC(=O)[C@H](Cc1ccccc1)NC(=O)CCC(=O)O	0.139
C=CCC(OC(C)=O)[C@@H]1[C@@H](N(Cc2ccc(-c3cccc(C(F)(F)F)c3)o2)C(=O)c2ccc(-c3ccccc3)cc2)c2cc(OCCCO)ccc2N1C(=O)c1ccc(-c2ccccc2)cc1 (stereo partly drawn)	0.0524
O=C1NC(=O)C2C1C=CC(C(O)Cc1ccccc1)N2Nc1ccc(Cl)cc1Cl (stereo not drawn)	-0.276
COCCCN1C(=O)[C@@]2(c3ccc([N+](=O)[O-])cc3)CC(=O)N(C3CCCCC3)[C@@H]2c2ccc(CO)cc21	-26.4
CC(C)c1ccc(NN2C(C(O)C(c3ccccc3)c3ccccc3)C=CC3C(=O)N(c4ccccc4)C(=O)C32)cc1 (stereo not drawn)	0.704
C=C(COC)/C(=C/C[C@H](OC(=O)c1ccncc1)c1ccc(OCCO)cc1)c1cnc2ccccc2c1	-3.5
C[N+](C)(C)CCCC[C@@H]1NC(=O)[C@@H]2C[C@H](C(=O)NCCCCCN)[C@H](c3cccc(OCCO)c3)N2C1=O	-0.76
O=C(C1N=C(c2ccc(OCCCO)cc2)N(c2ccccc2)O1)N1CCOCC1 (stereo not drawn)	-1.09
O=C1NC(=O)C2C1C=CC(C(O)c1cccc3ccccc13)N2Nc1ccccn1 (stereo not drawn)	0.305
CCCC#C[Si](O[C@H](CC)c1cn([C@H](CO)Cc2ccccc2)nn1)(C(C)C)C(C)C	0.225
Cc1ccc(S[C@]2(C(=O)NC(C)C)CC(=O)N(Cc3ccccc3Cl)[C@@H]2c2ccc(CO)cc2I)cc1	-0.766
CC(C)c1ccc(NN2C(C(O)c3cc(C(F)(F)F)cc(C(F)(F)F)c3)C=CC3C(=O)N(c4ccccc4)C(=O)C32)cc1 (stereo not drawn)	0.643
COc1ccc([Si](C)(C)[C@H]2[C@H](CC(=O)N3Cc4ccccc4C[C@H]3CO)O[C@@]3(C(=O)N(Cc4ccc(N5CCC5=O)cc4)c4ccccc43)[C@@H]2C)cc1	-3.08
C=C(CCCC)/C(=C/C[C@@H](OC(C)=O)c1ccccc1OCCO)c1cnc2ccccc2c1	-7.22
COC(=O)[C@@]1(Cc2ccc(OC)cc2)[C@H]2c3cc(C(=O)N4CCCC4)n(Cc4ccc(OC)c(OC)c4)c3C[C@H]2CN1C(=O)c1ccccc1	-0.245
CCOC(=O)C[C@H]1[C@H](OC(=O)c2ccc(C(=O)c3ccccc3)cc2)[C@@H](NC(=O)c2ccc(-c3ccccc3)cc2)c2cc(OCCCO)ccc2N1C(=O)c1ccccc1	-0.972
CN(C)CCCNC(=O)[C@@]1(C)c2ccccc2C(=O)N(Cc2cc(F)cc(C(F)(F)F)c2)[C@H]1c1ccc(CO)cc1	-0.478
O=C1O[C@H](c2ccccc2)[C@H](c2ccccc2)N2[C@H]1[C@@H](C(=O)N1CCN(c3ncccn3)CC1)[C@]1(C(=O)Nc3ccc(C#CC4=CCCCC4)cc31)[C@H]2c1ccc(O)cc1	-0.457
C=C[C@H](COC(C)=O)N(C(=O)OC(C)(C)C)S(=O)(=O)c1ccc(Br)cc1	-0.0237
O=C1NC(=O)C2C1C=CC(C(O)C(c1ccccc1)c1ccccc1)N2Nc1ccc(Cl)cc1Cl (stereo not drawn)	0.125
C=CCOC(=O)[C@@H]1[C@H]2C(=O)O[C@H](c3ccccc3)[C@H](c3ccccc3)N2[C@H](c2ccc(OCCOC(=O)[C@@H]3C[C@@H]4C(=O)N[C@@H](Cc5ccccc5)C(=O)N4[C@@H]3c3ccc(O)cc3)cc2)[C@@]12C(=O)Nc1ccc(I)cc12	-0.0246
COC(=O)[C@@]1(Cc2ccc(OC)cc2)[C@H]2c3cc(C(=O)N(C)C)n(CCN4CNCC4=O)c3C[C@H]2CN1C(=O)c1ccccc1	-0.72
C[N+](C)(C)CCCCNC(=O)[C@H]1C[C@H]2C(=O)N[C@@H](Cc3ccccc3)C(=O)N2[C@H]1c1ccc(O)cc1	-30.9
Cc1ccc(C(C)CC(O)C2C=CC3C(=O)N(C)C(=O)C3N2NC(=O)OC(C)(C)C)o1 (stereo not drawn)	-0.166

----------
assay: binders of probe aFSTL3 on microarray, primary screen, stem cell growth factor project, biochemical, small-molecule microarray, fluorescence 635/667 (AID 1064); settings: higher = more signal;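 further: measures binding of the biotinylated anti-FSTL3 antibody to printed compounds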
Each entry below carries its reported composite z-score.
measurement type: composite z-score

compound	result
O=C(NCc1ccccc1)[C@@]1(Cc2ccccc2)N=C(c2ccc(OCCCO)cc2)O[C@H]1c1ccccc1	0.398
CN1C(=O)C2C=CC(C(O)C3CC=CCC3)N(NC(=O)OC(C)(C)C)C2C1=O (configuration not stated)	-0.138
CC(C)N1C(=O)[C@@]2(Cc3ccccc31)c1ccccc1C(=O)N(C1CCCCC1)[C@H]2c1ccc(CO)cc1	-0.302
C=CCNC(=O)[C@@H]1[C@H]2C(=O)O[C@H](c3ccccc3)[C@H](c3ccccc3)N2[C@H](c2ccccc2OCCO)[C@@]12C(=O)N(C(=O)OCCOC)c1ccc(C#CCNC(N)=O)cc12	-0.14
CC(C)C[C@@H]1NC(=O)[C@H]2C[C@@H](C(=O)NCCCCCCN)[C@@H](c3ccc(O)cc3)N2C1=O	0.839
COc1ccc([Si](C)(C)[C@H]2[C@H](CC(=O)N3Cc4ccccc4C[C@H]3CO)O[C@@]3(C(=O)N(Cc4ccc(N5CCC5=O)cc4)c4ccccc43)[C@@H]2C)cc1	0.061
[N-]=[N+]=Nc1ccccc1[C@H]1OC(c2ccc(OCCCO)cc2)=N[C@@]1(Cc1ccccc1)C(=O)O	0.0481

----------
test: binders of probe aFGF2 on microarray, primary screen, stem cell growth factor project, biochemical, small-molecule microarray, fluorescence 635/667 (AID 1067); settings: higher = more signal;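 further: measures binding of biotinylated aFGF2 protein to printed compounds on slides; z-score merges feature fluorescence and signal-to-noise across triplicate slides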
// reported composite z-score for each item listed
measurement type: composite z-score

compound	result
C=CCNC(=O)[C@H]1[C@@H]2C(=O)O[C@@H](c3ccccc3)[C@@H](c3ccccc3)N2[C@@H](c2ccc(OCCO)cc2)[C@]12C(=O)N(C(=O)OCCOC)c1ccccc12	0.0732
COC(=O)[C@@]1(Cc2ccccc2)[C@H]2c3cc(C(=O)N4CCCC4)n(Cc4nc5ccccc5[nH]4)c3C[C@H]2CN1C(=O)c1ccccc1	-0.0879
[N-]=[N+]=Nc1ccccc1C[C@]1(C(N)=O)N=C(c2ccc(OCCCO)cc2)O[C@H]1c1ccccc1	0.0931
C=CC[C@@]1(C(N)=O)N=C(c2ccc(OCCCO)cc2)O[C@@H]1c1ccccc1CN=[N+]=[N-]	-0.0193
C=CC[C@@]1(C(=O)N(C)C)N=C(c2ccc(OCCCO)cc2)O[C@@H]1c1ccccc1N=[N+]=[N-]	0.0732
O=C1[C@H]2C=C(Br)[C@H](C[C@@H]2c2ccccc2)[C@@]12CO2	-0.0265
Cc1ccc(S[C@]2(C(=O)NCC(F)(F)F)CC(=O)N(C(C)C)[C@@H]2c2ccc(CO)cc2I)cc1	-0.04
C=C(CCCC)C(=O)CC[C@@H](OC(=O)c1cccnc1)c1ccc(CO)o1	-0.008
C=CCOC(=O)[C@H]1[C@@H]2C(=O)O[C@@H](c3ccccc3)[C@@H](c3ccccc3)N2[C@@H](c2ccc(OCCOC(=O)[C@@H]3C[C@@H]4C(=O)N5CCC[C@H]5C(=O)N4[C@@H]3c3cccc(OCCO)c3)cc2)[C@]12C(=O)Nc1ccccc12	0.0584
COC(=O)C=C(CC(O)c1cccc(Cl)c1)OC (stereo not given)	0.54
COc1cc2c(cc1OC)CN(C(=O)[C@H]1[C@@H]3C(=O)O[C@@H](c4ccccc4)[C@@H](c4ccccc4)N3[C@@H](c3ccc(O)cc3)[C@]13C(=O)Nc1ccc(C#CC4=CCCCC4)cc13)CC2	0.088
O=C1[C@H]2C=C(Br)[C@H](C[C@@H]2OCCCCO)[C@@]12CO2	-0.116
COC(=O)c1c(CC[C@@H](CO)NC(=O)N[C@@H](C)Cn2cc(C3(O)CCCCC3)nn2)oc(C(C)=O)c1C(=O)OC	-0.0512
O=C(NCc1ccccc1)[C@@H]1c2ccccc2C(=O)N(CC23CC4CC(CC(C4)C2)C3)[C@H]1c1ccc(CO)cc1	-0.0494
O=C1OCCC/C=C\[C@H]2OC34C=CCN(c5ccc6ccccc6c5)C(=O)[C@H]3N(CCCCCCO)C(=O)[C@@H]4C12 (stereo not given in full)	-0.0824

Where these numbers come from: PubChem BioAssay
